Biological target: GST-tagged ROR gamma ligand binding domain (LBD) (Homo sapiens)
Construct: purchased Invitrogen
Sequence (P51449 269-508 limits assumed): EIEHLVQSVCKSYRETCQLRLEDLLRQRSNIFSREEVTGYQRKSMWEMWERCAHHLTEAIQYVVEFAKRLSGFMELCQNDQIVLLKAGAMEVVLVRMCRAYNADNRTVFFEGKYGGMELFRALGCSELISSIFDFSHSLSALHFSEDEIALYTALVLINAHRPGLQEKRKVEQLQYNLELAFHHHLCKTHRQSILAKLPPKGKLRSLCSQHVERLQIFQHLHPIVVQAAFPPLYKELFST
Test: TR-FRET assay for ROR gamma (LanthaScreen co-activator peptide recruitment)
Type: biochemical
Settings: compound 10 μM; TR-FRET ratio 520/495, percent of control
Consider the cut-off 80%. If the recorded inhibition at 10 µM is strictly smaller, the label is Condition met; if not, the label is Condition not met.

Report whether reported inhibition at 10 µM is lower than 80% (strictly) for CCS(=O)(=O)c1ccc(CC(=O)Nc2ccc(OC(C)(C)c3ccc(Cl)cc3F)nc2)cc1 [Example 56]
Condition not met

# repeat for CCS(=O)(=O)c1ccc(CC(=O)Nc2ccc(OC3(c4ccc(Cl)c(Cl)c4)CCOCC3)cc2)cc1 [Example 39]
Condition not met

# repeat for CCS(=O)(=O)c1ccc(CC(=O)Nc2ccc3c(c2)nc(C(C)(C)Oc2ccc(F)cc2F)n3CC2CC2)cc1 [Example 114]
Condition not met

# repeat for CCS(=O)(=O)c1ccc(CC(=O)Nc2ccc(OC(C)(C)c3ccc(Cl)cc3F)c(F)c2)cc1 [Example 98]
Condition met

# repeat for CCS(=O)(=O)c1ccc(CC(=O)Nc2ccc3c(c2)nc(C(C)(C)Oc2ccc(F)c(F)c2)n3C)cc1 [Example 82]
Condition not met

====

target: GST-tagged ROR gamma ligand binding domain (LBD) (Homo sapiens, UniProt P51449); construct: purchased Invitrogen; test: TR-FRET assay for ROR gamma (LanthaScreen co-activator peptide recruitment); type: biochemical; settings: compound 1 μM; TR-FRET ratio 520/495, percent of control
observedProperty: inhibition at 1 µM (%)
Answer in %, number only, no unit symbol.

Which inhibition at 1 µM is listed for CCS(=O)(=O)c1ccc(CC(=O)Nc2ccc(C#CC(C)(C)Oc3ccc(Cl)cc3Cl)cc2)cc1 [Example 63] ?
80.5

# repeat for CCS(=O)(=O)c1ccc(CC(=O)Nc2ccc(C#CC(C)(C)Oc3cc(F)c(F)c(F)c3)cc2)cc1 [Example 71]
75.9

# repeat for CCn1c(C(F)(F)Oc2ccc(F)cc2F)nc2cc(NC(=O)Cc3ccc(S(=O)(=O)CC)cc3)ccc21 [Example 118]
5.43

# repeat for CCS(=O)(=O)c1ccc(CC(=O)Nc2ccc(OC3(c4ccc(F)c(F)c4)CCC3)cc2)cc1 [Example 34]
86.6

# repeat for CCS(=O)(=O)c1ccc(CC(=O)Nc2ccc(OC3(c4ccc(Cl)cc4Cl)CCOCC3)cc2)cc1 [Example 40]
77.4

# repeat for CCS(=O)(=O)c1ccc(CC(=O)Nc2ccc(C#CC(C)(C)Oc3ccc(OC(F)F)cc3)cc2)cc1 [Example 78]
85.2

# repeat for CCS(=O)(=O)c1ccc(CC(=O)Nc2ccc(C#CC(C)(C)Oc3ccc(Cl)c(F)c3)cc2)cc1 [Example 66]
84.3

# repeat for CCS(=O)(=O)c1ccc(CC(=O)Nc2ccc(C#CC(C)(C)Oc3ccc(OC(F)(F)F)cc3)cc2)cc1 [Example 77]
82.8

# repeat for CCS(=O)(=O)c1ccc(CC(=O)Nc2ccc(OC(C)(C)c3ccc(Cl)c(Cl)c3)cc2)cc1 [Example 4]
80.5

# repeat for CCS(=O)(=O)c1ccc(CC(=O)Nc2ccc(OC3(c4ccc(Cl)c(F)c4)CCCCC3)c(F)c2)cc1 [Example 122]
77.3

# repeat for CCS(=O)(=O)c1ccc(CC(=O)Nc2ccc(OC3(c4ccc(Cl)c(F)c4)CCC3)c(F)c2)cc1 [Example 119]
84.9

# repeat for CCS(=O)(=O)c1ccc(CC(=O)Nc2ccc(OC3(c4ccc(Cl)cc4Cl)CCC3)c(F)c2)cc1 [Example 139]
86.3

# repeat for CCS(=O)(=O)c1ccc(CC(=O)Nc2ccc(OC(C)(C)c3ccc(F)cc3Cl)c(F)c2)cc1 [Example 97]
80.8

# repeat for CCn1c(C2(Oc3ccc(NC(=O)Cc4ccc(S(=O)(=O)CC)cc4)cc3)CC2)nc2ccc(Cl)cc21 [Example 23]
69.6

# repeat for CCn1c(C(C)(C)Oc2cc(F)ccc2F)nc2cc(NC(=O)Cc3ccc(S(=O)(=O)CC)cc3)ccc21 [Example 126]
85.9

# repeat for CCS(=O)(=O)c1ccc(CC(=O)Nc2ccc(OC3(c4nc5cc(Cl)ccc5n4C)CCC3)cc2)cc1 [Example 25]
85.3

# repeat for CCS(=O)(=O)c1ccc(CC(=O)Nc2ccc(OC3(c4ccc(Cl)cc4Cl)CCOCC3)c(F)c2)cc1 [Example 136]
71.6

# repeat for CCS(=O)(=O)c1ccc(CC(=O)Nc2ccc(OC3(c4ccc(F)c(F)c4)CCOCC3)cc2)cc1 [Example 35]
79.5

# repeat for CCS(=O)(=O)c1ccc(CC(=O)Nc2ccc(OC(C)(C)c3ncc(Cl)cc3Cl)cc2)cc1 [Example 11]
84.3

# repeat for CCS(=O)(=O)c1ccc(CC(=O)Nc2ccc(OC3(c4ccc(Cl)cc4Cl)CC3)c(F)c2)cc1 [Example 138]
86.8

# repeat for CCS(=O)(=O)c1ccc(CC(=O)Nc2ccc(OC(C)(C)c3ccc(F)c(F)c3)cc2)cc1 [Example 1]
47.7

# repeat for CCn1c(C(C)(C)Oc2ccc(Cl)cc2)nc2cc(NC(=O)Cc3ccc(S(=O)(=O)CC)cc3)ccc21 [Example 93]
83.4

# repeat for CCS(=O)(=O)c1ccc(CC(=O)Nc2ccc(OC3(c4ccc(Cl)c(F)c4)CCOCC3)nc2)cc1 [Example 55]
75.5

# repeat for CCS(=O)(=O)c1ccc(CC(=O)Nc2ccc(C#CC(C)(C)Oc3ccc(F)c(F)c3)cc2)cc1 [Example 70]
77.7

# repeat for CCn1c(C(C)(C)Oc2ccc(Cl)c(F)c2)nc2cc(NC(=O)Cc3ccc(S(=O)(=O)CC)cc3)ccc21 [Example 87]
90.8

# repeat for CCS(=O)(=O)c1ccc(CC(=O)Nc2ccc(OC3(c4ccc(Cl)c(F)c4)CCN(C)CC3)cc2)cc1 [Example 44]
44.6

# repeat for CCS(=O)(=O)c1ccc(CC(=O)Nc2ccc(OC3(c4ccc(Cl)c(F)c4)CCCC3)c(F)c2)cc1 [Example 121]
86.8

# repeat for CCS(=O)(=O)c1ccc(CC(=O)Nc2ccc(C#CC(C)(C)Oc3ccc(Cl)cc3F)nc2)cc1 [Example 80]
50.2

# repeat for CCS(=O)(=O)c1ccc(CC(=O)Nc2ccc(OC3(c4ccc(Cl)cc4Cl)CCCCC3)cc2)cc1 [Example 134]
77.3

# repeat for CCS(=O)(=O)c1ccc(CC(=O)Nc2ccc(OC3(c4ccc(F)c(C(F)(F)F)c4)CCOCC3)cc2)cc1 [Example 42]
65.9

====

molecular target: GST-tagged ROR gamma ligand binding domain (LBD) (Homo sapiens); construct: purchased Invitrogen; experiment: TR-FRET assay for ROR gamma (LanthaScreen co-activator peptide recruitment); assay type: biochemical; conditions: compound 10 μM; TR-FRET ratio 520/495, percent of control
I'd be grateful if you could share measured inhibition at 10 µM for these entries.
Answer in %, number only, no unit symbol.

Which inhibition at 10 µM is listed for CCS(=O)(=O)c1ccc(CC(=O)Nc2ccc3c(c2)nc(C(C)(C)Oc2ccc(F)cc2F)n3C2CC2)cc1 ?
90.4

# repeat for CCS(=O)(=O)c1ccc(CC(=O)Nc2ccc(OC3(c4ccc(Cl)cc4Cl)COC3)c(F)c2)cc1
82.3

# repeat for CCS(=O)(=O)c1ccc(CC(=O)Nc2ccc(OC3(c4ccc(Cl)c(F)c4)CCC3)c(F)c2)cc1
84.5

# repeat for CCn1c(C(F)(F)Oc2ccc(F)cc2F)nc2cc(NC(=O)Cc3ccc(S(=O)(=O)CC)cc3)ccc21
9.14

====

I'd be grateful if you could share measured inhibition at 10 µM for these entries.
target: GST-tagged ROR gamma ligand binding domain (LBD) (Homo sapiens); construct: purchased Invitrogen; test: TR-FRET assay for ROR gamma (LanthaScreen co-activator peptide recruitment); assay type: biochemical; details: compound 10 μM; TR-FRET ratio 520/495, percent of control
Answer in %, number only, no unit symbol.

Which inhibition at 10 µM is listed for CCS(=O)(=O)c1ccc(CC(=O)Nc2ccc3c(c2)nc(C(C)(C)Oc2ccc(C(F)(F)F)cc2)n3C)cc1 [Example 81] ?
88.9

# repeat for CCn1c(C(C)(C)Oc2ccc(NC(=O)Cc3ccc(S(=O)(=O)CC)cc3)cc2)nc2cccc(Cl)c21 [Example 19]
88.9

# repeat for CCS(=O)(=O)c1ccc(CC(=O)Nc2ccc(OC3(c4ccc(Cl)c(F)c4)CCC3)cc2)cc1 [Example 32]
88.5

# repeat for CCS(=O)(=O)c1ccc(CC(=O)Nc2ccc(C#CC(C)(C)Oc3ccc(OC(F)F)cc3)cc2)cc1 [Example 78]
87.4

# repeat for CCn1c(C2(Oc3ccc(NC(=O)Cc4ccc(S(=O)(=O)CC)cc4)cc3)CCC2)nc2cc(F)ccc21 [Example 26]
90.9
